Listed next: entries and their corresponding GI50.
# System: OVCAR-8
# test-description: NCI tumour cell line growth inhibition, 48 h
Active and inactive are the calls of the source. Rule as the data show it: active = GI50 up to about 1.1 µM and inactive = higher.

[[record]]
compound = "Nn1c(-c2ccccc2)n[nH]c1=O"
recorded_value = "> 100 µM (inactive)"

[[record]]
compound = "COc1cc(C2SCC(=O)N2Cc2ccccc2)cc(OC)c1OC (stereo not drawn)"
recorded_value = "> 100 µM (inactive)"


Now take the following compound into account.
I am curious: what GI50 value has been reported for `O=C(C(=O)N1CCc2ccccc21)c1c[nH]c2ccccc12` ?
> 10 µM (inactive)

* * *

# System: OVCAR-5
# test-description: NCI tumour cell line growth inhibition, 48 h
Active and inactive are the calls of the source. Rule as the data show it: active = GI50 up to about 1.1 µM and inactive = higher. Where a SMILES comes first, the peptide text is derived from it. [ ]: non-standard residue; d: D form. The star is where a group is joined. Bn2Val = CC(C)[C@@H](C(=O)*)N(Cc1ccccc1)Cc1ccccc1; NHPiperonyl = c1cc2c(cc1CN*)OCO2; NMeV = CN[C@H](C(=O)O)C(C)C; dNMeA = CN[C@H](C)C(=O)O
assay-endpoint: GI50

[[record]]
compound = "OC1(c2ccccc2)CC2CCC(C1)N2CCCC(O)(c1ccccc1)c1ccccc1 (stereo not drawn)"
recorded_value = "25.8 µM (inactive)"

[[record]]
compound = "CC(C)[C@H](NC(=O)[C@H](C(C)C)N(Cc1ccccc1)Cc1ccccc1)C(=O)N(C)[C@H](C(=O)N1CCC[C@H]1C(=O)N(C)[C@H](C)C(=O)NCc1ccc2c(c1)OCO2)C(C)C (Bn2Val-V[NMeV]P[dNMeA]-NHPiperonyl)"
recorded_value = "4.38 µM (inactive)"

[[record]]
compound = "COc1ccc(CNc2nc3cc(C(F)(F)F)ccc3nc2C(=O)O)cc1OC"
recorded_value = "46 µM (inactive)"

[[record]]
compound = "COc1c2c3c4c(c(OC)c(=O)c5c(O)cc(OC)c(c6c(OC)cc(O)c(c1=O)c63)c54)C(C(C)O)C2C(C)O (stereo not drawn)"
recorded_value = "1.28 µM (inactive)"


Notebook: pull reported GI50 for OVCAR-5, entry `COc1cc(Cl)cc(O)c(=O)c1OC`
> 92.5 µM (inactive)

# repeat for CC1=Nc2ccccc2C1C(Cc1ccccc1N)c1c(C)[nH]c2ccccc12 (stereo not drawn)
17.6 µM (inactive)

Moving on to `COc1c(C)c(C/C=C(\C)CC/C=C(\C)CC/C=C(\C)CCC=C(C)C)c(OC)c2ccccc12`
> 100 µM (inactive)

For `CN(C)N1C(=O)SCC(c2ccccc2)(c2ccccc2)C1=O` then?
> 100 µM (inactive)

* * *

# System: HOP-92
# test-description: NCI tumour cell line growth inhibition, 48 h
Calls of active or inactive are those of the source. No stated cut-off is given here; in the data, active = GI50 up to about 1.1 µM and inactive = higher.
assay-endpoint: GI50

Could you tell me which GI50 is on file for `O=C(N/C(=C\c1ccc(/C=C(\NC(=O)c2ccccc2)c2nc3ccccc3s2)cc1)c1nc2ccccc2s1)c1ccccc1` ?
12.5 µM (inactive)

Same read-out for O=C(/C=C/c1ccc(O)c(O)c1)NC(CO)C(=O)O (centres undefined) ?
3.72 µM (inactive)

Field entry: COC1=CC(=O)[C@]2(C)[C@H](C1=O)C(C)[C@H]2c1ccc(OC)cc1 (some centres undefined)
> 100 µM (inactive)

* * *

In this section we review reported GI50 values for a set of compounds.
# System: A549
# test-description: NCI tumour cell line growth inhibition, 48 h
The source made the active and inactive calls. No stated cut-off is given here; in the data, active = GI50 up to about 1.1 µM and inactive = higher.

[[record]]
compound = "Cc1c(C#N)c(=O)[nH]c(=O)n1CCN1CCN(C(=O)NCCCCCCNC(=O)N2CCN(CCn3c(C)c(C#N)c(=O)[nH]c3=O)CC2)CC1"
recorded_value = "> 100 µM (inactive)"


Which GI50 value is on record for CCC1CN2CCc3cc(OC)c(OC)cc3C2CC1CC1c2cc(OC)c(OC)cc2CCN1C(=O)C(N)Cc1ccccc1.[O-][Cl+3]([O-])([O-])O (centres undefined) ?
1.6 µM (inactive)

Entry to check: `CC(=O)NC(=O)/N=C1\NCCC(=O)N1CCc1c[nH]c2ccccc12`
> 100 µM (inactive)

How about this compound: `COc1ccc2c(=O)cc(-c3ccc(OC)c(OC)c3OC)oc2c1`
4.81 µM (inactive)

Cool, now Cc1cn(C2CC(O)C(COC(N)=O)O2)c(=O)[nH]c1=O (centres undefined)
> 100 µM (inactive)

Further, for COCc1c(CO)cnc(C)c1OC1OC(CO)C(O)C(O)C1O (centres undefined) ?
> 100 µM (inactive)
